Each entry below carries its reported reverse-splicing fitness.
B1: Azoarcus group I ribozyme (parent)
chain: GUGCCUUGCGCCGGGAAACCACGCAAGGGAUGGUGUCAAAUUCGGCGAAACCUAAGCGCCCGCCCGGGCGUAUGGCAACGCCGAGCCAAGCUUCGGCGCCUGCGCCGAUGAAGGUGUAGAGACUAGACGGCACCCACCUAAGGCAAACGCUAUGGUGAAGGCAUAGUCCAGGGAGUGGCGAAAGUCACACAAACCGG

variants of: B1; assay: reverse-splicing fitness (ratio to wild type); higher = more active; in vitro selection; Mg2+ level not given
readout: reverse-splicing fitness

In [3]: df
Out[3]:
                            variant_notation  test_result
 0              C82G A111G A120U A145G C150G       0.0102
 1        C82G A111G A120C A145U C150A C169A       0.0104
 2                    C82U A120G C169A U176G      0.00354
 3                         A111G C150G C169A       0.0114
 4                    C82U A111G A120G U176C       0.0144
 5       A111G A120U A145C C150G C169A U176A      0.00204
 6        C82U A111U A120C C150A C169U U176C       0.0203
 7                   A111U A145U C150G C169U       0.0168
 8  C82G A111U A120U A145G C150A C169U U176A      0.00402
 9                    C82U A111G C150U U176C        0.146
10        C82G A111C A120C C150A C169U U176G       0.0085
11                   A111G C150A C169U U176A       0.0199
12        C82A A111U A120U A145G C169A U176C      0.00356
13        C82G A111C A120C A145G C169A U176A       0.0223
14             A111C A120U A145C C169G U176C      0.00626
15                          C82U A145C C150U        0.172
16        C82U A120G A145C C150G C169G U176A      0.00838
17  C82U A111G A120C A145G C150A C169U U176C        0.014
18              C82A A111U A120U A145G U176A      0.00766
19              C82G A111U A145C C150U U176G       0.0188
20              C82U A120G A145G C169U U176A       0.0237
21             A120U A145C C150U C169G U176A       0.0156
